Molecular target: type 2 5α-reductase (Homo sapiens, UniProt P31213)
Construct: made in house
Sequence (P31213 1-254): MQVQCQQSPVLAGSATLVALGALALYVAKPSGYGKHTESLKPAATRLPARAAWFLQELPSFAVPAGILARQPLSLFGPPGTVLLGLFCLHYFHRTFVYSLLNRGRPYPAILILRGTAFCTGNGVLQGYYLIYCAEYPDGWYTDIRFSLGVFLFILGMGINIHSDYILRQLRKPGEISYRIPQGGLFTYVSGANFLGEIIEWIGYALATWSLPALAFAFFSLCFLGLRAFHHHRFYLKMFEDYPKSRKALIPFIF
Assay: Progress curves of DHT formation, slow-binding inhibition of baculovirus-expressed type 2 5α-reductase
Format: biochemical
REPORTED_PROPERTY: Ki

CCN(CC)C(=O)[C@H]1CC[C@H]2[C@@H]3CC[C@H]4OC(=O)C=C[C@]4(C)[C@H]3CC[C@]12C has a reported Ki of < 0.1 nM
